assay: Antiproliferative activity against mouse FC-1199 cells incubated for 48 hrs by Hoechst 33342 and SYTOX green staining based confocal imaging analysis; format: functional, cell-based; conditions: FC-1199, 48 h
Can you tell me pIC50 for the items I'm about to list?
One number for each entry, as −log10 of the molar value.

Worked examples, 2 compounds total:
[[record]]
compound = "COC(=O)C(CC(=O)Nc1ccc(C(=O)c2nccn2C)cc1)c1ccc(C(F)(F)F)cc1 (stereo not drawn)"
result_number = 4.92

[[record]]
compound = "COC(=O)C(CC(=O)Nc1ccc(C(=O)c2nccn2C)cc1)c1ccc(Cl)cc1 (stereo not drawn)"
result_number = 4.63


Given the entry Cn1ccnc1C(=O)c1ccc(NC(=O)CC(C(=O)O)c2ccc(C(F)(F)F)cc2)cc1 (stereo not drawn) , report its measured pIC50. 4.68

====

experiment: Cytotoxicity against HPNEs incubated for 48 hrs by Hoechst 33342 and SYTOX green staining based confocal imaging analysis; assay type: toxicity, cell-based; settings: human, HPNE cells
Can you tell me IC50 at 48 h for the items I'm about to list?
One number for each entry, in µM.

[[record]]
compound = "COC(=O)C(CC(=O)Nc1ccc(C(=O)c2nccn2C)cc1)c1ccc(Cl)cc1 (stereo not drawn)"
measured_quantity = "IC50 at 48 h"
result_number = 26.5


// moving on: another record for IC50 at 48 h
Given the entry COC(=O)C(CC(=O)Nc1ccc(C(=O)c2nccn2C)cc1)c1ccc(C(F)(F)F)cc1 (stereo not drawn) , report its measured IC50 at 48 h. 49.5

====

Measured pIC50 (L-lactate dehydrogenase A chain (Homo sapiens, UniProt P00338))
pIC50: −log10 of the molar value.

Worked examples, 2 compounds total:
[[record]]
compound = "O=C(O)CC(NC(=O)CCc1ccccc1)c1cccc(Cl)c1 (stereo not drawn)"
measured_quantity = "pIC50"
result = "< 4.00"

[[record]]
compound = "O=C(CC(C(=O)O)c1ccc(C(F)(F)F)cc1)Nc1ccc(N2CCOCC2)c(Cl)c1 (stereo not drawn)"
measured_quantity = "pIC50"
result = "< 4.00"


// moving on: another record for pIC50
For the record O=C(O)CC(NC(=O)c1ccccc1Cl)c1cccc(Cl)c1 (stereo not drawn) , what value of pIC50 is listed for L-lactate dehydrogenase A chain (Homo sapiens, UniProt P00338)? < 4.00

Recorded values, source ChEMBL document CHEMBL5584248.
